IC50 reference
- ASSAY TARGET: human Dopamine D2L receptor (Homo sapiens)
- Construct: expressed in transfected cells; host or cells: CHO cells
- Sequence (P14416 whole entry): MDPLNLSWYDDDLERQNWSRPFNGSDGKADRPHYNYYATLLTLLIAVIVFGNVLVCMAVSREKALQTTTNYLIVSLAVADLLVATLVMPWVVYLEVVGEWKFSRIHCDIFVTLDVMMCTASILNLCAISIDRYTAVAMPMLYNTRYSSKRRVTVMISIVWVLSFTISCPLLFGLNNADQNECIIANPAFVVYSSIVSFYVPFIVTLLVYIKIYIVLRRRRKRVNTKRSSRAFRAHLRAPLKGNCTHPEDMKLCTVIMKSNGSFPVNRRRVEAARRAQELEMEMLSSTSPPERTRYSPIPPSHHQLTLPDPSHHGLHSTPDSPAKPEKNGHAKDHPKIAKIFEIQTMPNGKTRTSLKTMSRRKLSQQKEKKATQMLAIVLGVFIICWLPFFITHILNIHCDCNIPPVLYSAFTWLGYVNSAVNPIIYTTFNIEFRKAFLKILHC
- TEST: In vitro binding affinity for human D2L receptor ([3H]Spiperone binding)
- EXPERIMENTAL CONDITIONS: human D2L receptor-transfected CHO cell membranes, read-out: D2L pIC50 (converted)
Give a bare numeral; the unit nM is implied.

Solved entries:
COMPOUND: O=C(Cc1ccc(Cl)cc1)NC1CCN(CC2CC3c4ccccc4Cc4ccc(F)cc4C3O2)CC1 (stereo not shown) [Compound 239]
ASSAY TARGET: human Dopamine D2L receptor (Homo sapiens)
IC50 / nM: 49

COMPOUND: O=C(NCc1ccco1)C1CCN(CC2CC3c4ccccc4Cc4ccc(F)cc4C3O2)CC1 (stereo not shown) [Compound 194]
ASSAY TARGET: human Dopamine D2L receptor (Homo sapiens)
IC50 / nM: 5.01

COMPOUND: Fc1ccc2c(c1)C1OC(CN3CCC(Oc4cccc(C(F)(F)F)c4)C3)CC1c1ccccc1C2 (mixture of isomers) [Compound 37]
ASSAY TARGET: human Dopamine D2L receptor (Homo sapiens)
IC50 / nM: 32.4

COMPOUND: COc1cccc(N2CCN(CC3CC4c5ccccc5Cc5ccc(F)cc5C4O3)CC2)n1 (stereo not shown) [Compound 118]
ASSAY TARGET: human Dopamine D2L receptor (Homo sapiens)
IC50 / nM: 26.3

COMPOUND: OCC1CCN(CC2CC3c4ccccc4Cc4ccc(F)cc4C3O2)CC1 (stereo not shown) [Compound 151]
ASSAY TARGET: human Dopamine D2L receptor (Homo sapiens)
IC50 / nM: 1.35

COMPOUND: CCCCNC(=O)N1CCN(CC2CC3c4ccccc4Cc4ccc(F)cc4C3O2)CC1 (stereo not shown) [Compound 89]
ASSAY TARGET: human Dopamine D2L receptor (Homo sapiens)
IC50 / nM: 38.9

COMPOUND: O=C(C1CCCO1)N1CCN(CC2CC3c4ccccc4Cc4ccc(F)cc4C3O2)CC1 (mixture of isomers) [Compound 80]
ASSAY TARGET: human Dopamine D2L receptor (Homo sapiens)
IC50 / nM: 44.7

COMPOUND: O=C(OC1CCN(CC2CC3c4ccccc4Cc4ccc(F)cc4C3O2)C1)c1ccc(F)cc1 (mixture of isomers) [Compound 16]
ASSAY TARGET: human Dopamine D2L receptor (Homo sapiens)
IC50 / nM: 5.13

COMPOUND: CCOC(=O)CNC(=S)N1CCN(CC2CC3c4ccccc4Cc4ccc(F)cc4C3O2)CC1 (stereo not shown) [Compound 110]
ASSAY TARGET: human Dopamine D2L receptor (Homo sapiens)
IC50 / nM: 36.3

COMPOUND: CN(C)C(=O)NC1CCN(CC2CC3c4ccccc4Cc4ccc(F)cc4C3O2)CC1 (stereo not shown) [Compound 243]
ASSAY TARGET: human Dopamine D2L receptor (Homo sapiens)
IC50 / nM: 6.76

# returns recorded IC50 (system: human Dopamine D2L receptor (Homo sapiens)) for N#CCCC1CCCN(CC2CC3c4ccccc4Cc4ccc(F)cc4C3O2)C1 (mixture of isomers) [Compound 169]
13.8

How about CCCCOC(=O)NC1CCN(CC2CC3c4ccccc4Cc4ccc(F)cc4C3O2)CC1 (stereo not shown) [Compound 213] ?
8.71

How about O=C(C1CCCC1)N1CCN(CC2CC3c4ccccc4Cc4ccc(F)cc4C3O2)CC1 (stereo not shown) [Compound 79] ?
44.7

How about CCCNC(=O)NC1CCN(C[C@H]2C[C@@H]3c4ccccc4Cc4ccc(F)cc4[C@@H]3O2)CC1 [Compound 244] ?
4.57

How about Fc1ccc2c(c1)C1OC(CN3CCN(c4nc5ccccc5[nH]4)CC3)CC1c1ccccc1C2 (stereo not shown) [Compound 127] ?
22.4

How about O=C(NC1CCN(CC2CC3c4ccccc4Cc4ccc(F)cc4C3O2)CC1)c1cccc(Cl)c1Cl (stereo not shown) [Compound 228] ?
9.12

###

IC50 reference
- ASSAY TARGET: human cloned 5-HT2C receptor, expressed in CHO cells (Homo sapiens, UniProt P28335)
- Construct: expressed in transfected cells; host or cells: CHO cells
- Sequence (P28335 33-458): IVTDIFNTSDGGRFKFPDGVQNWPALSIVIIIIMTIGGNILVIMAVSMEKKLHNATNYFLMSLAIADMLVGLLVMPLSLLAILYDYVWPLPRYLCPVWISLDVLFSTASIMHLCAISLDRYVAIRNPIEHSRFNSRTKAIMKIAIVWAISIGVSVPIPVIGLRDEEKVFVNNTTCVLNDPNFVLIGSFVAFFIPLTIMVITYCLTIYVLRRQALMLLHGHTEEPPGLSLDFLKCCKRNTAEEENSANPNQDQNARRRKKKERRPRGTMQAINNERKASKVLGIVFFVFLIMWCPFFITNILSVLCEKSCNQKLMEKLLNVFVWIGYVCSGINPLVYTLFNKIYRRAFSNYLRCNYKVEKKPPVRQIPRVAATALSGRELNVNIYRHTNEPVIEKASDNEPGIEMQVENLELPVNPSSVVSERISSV
- TEST: In vitro binding affinity for 5-HT2C receptor ([3H]mesulergine radioligand binding)
- EXPERIMENTAL CONDITIONS: human cloned 5-HT2C receptor, read-out: 5-HT2C pIC50 (converted)
Give a bare numeral; the unit nM is implied.

Solved entries:
COMPOUND: O=C(NC1CCN(CC2CC3c4ccccc4Cc4ccc(F)cc4C3O2)CC1)c1ccccc1F (centres unmarked)
IC50 [nM]: 9.77

COMPOUND: O=[N+]([O-])c1ccc(-c2ccc(CN3CCN(CC4CC5c6ccccc6Cc6ccc(F)cc6C5O4)CC3)o2)cc1 (centres unmarked)
IC50 [nM]: 50.1

COMPOUND: O=C(NCc1ccccc1)OCC1CCN(CC2CC3c4ccccc4Cc4ccc(F)cc4C3O2)C1 (mixture of isomers)
IC50 [nM]: 1.45

COMPOUND: OCC1CCN(C[C@H]2C[C@@H]3c4ccccc4Cc4ccc(F)cc4[C@@H]3O2)C1 (some centres unmarked)
IC50 [nM]: 0.204

COMPOUND: CC(C)(C)CC(C)(C)NC(=O)NC1CCN(CC2CC3c4ccccc4Cc4ccc(F)cc4C3O2)CC1 (centres unmarked)
IC50 [nM]: 22.9

Data request, read-out IC50, for Fc1ccc2c(c1)C1OC(CN3CCN(Cc4cnc[nH]4)CC3)CC1c1ccccc1C2 (centres unmarked)
37.2

How about O=C(NC1CCN(CC2CC3c4ccccc4Cc4ccc(F)cc4C3O2)CC1)c1ccc(Cl)cc1Cl (centres unmarked) ?
12.6

How about C=CCOC(=O)N1CCN(CC2CC3c4ccccc4Cc4ccc(F)cc4C3O2)CC1 (centres unmarked) ?
25.1

###

- ASSAY TARGET: human cloned 5-HT2A receptor, expressed in L929 cells (Homo sapiens, UniProt P28223)
- Construct: expressed in transfected cells; host or cells: L929 cells
- Sequence (P28223 whole entry): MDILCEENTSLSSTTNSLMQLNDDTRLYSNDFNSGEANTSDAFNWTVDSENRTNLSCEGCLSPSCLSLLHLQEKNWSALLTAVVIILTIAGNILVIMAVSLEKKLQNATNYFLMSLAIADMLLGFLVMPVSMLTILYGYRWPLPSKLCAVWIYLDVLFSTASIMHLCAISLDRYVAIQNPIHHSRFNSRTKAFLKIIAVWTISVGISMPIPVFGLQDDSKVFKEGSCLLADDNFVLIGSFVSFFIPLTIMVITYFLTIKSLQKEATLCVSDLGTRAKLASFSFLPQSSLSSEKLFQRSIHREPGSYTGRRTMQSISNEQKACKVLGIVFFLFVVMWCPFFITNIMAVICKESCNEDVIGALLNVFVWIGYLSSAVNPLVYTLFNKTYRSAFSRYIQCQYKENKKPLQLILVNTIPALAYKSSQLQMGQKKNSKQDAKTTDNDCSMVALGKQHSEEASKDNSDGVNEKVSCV
- TEST: In vitro binding affinity for 5-HT2A receptor ([125I]R91150 radioligand binding)
- EXPERIMENTAL CONDITIONS: human cloned 5-HT2A receptor in L929 cells, [125I]R91150; read-out: 5-HT2A pIC50 (converted)
IC50 reference

COMPOUND: OC(COCc1ccco1)CN1CCN(CC2CC3c4ccccc4Cc4ccc(F)cc4C3O2)CC1 (mixture of isomers)
RESULT: 2.69 nM

COMPOUND: Fc1ccc2c(c1)[C@@H]1O[C@@H](CN3CCN(c4cccc(C(F)(F)F)n4)CC3)C[C@@H]1c1ccccc1C2
RESULT: 10.2 nM

COMPOUND: Fc1ccc2c(c1)C1OC(CN3CCN(Cc4cnc(-c5ccccc5)[nH]4)CC3)CC1c1ccccc1C2 (stereo not shown)
RESULT: 3.16 nM

Data request, read-out IC50, for O=C(Nc1ccc(F)c(Cl)c1)C1CCN(CC2CC3c4ccccc4Cc4ccc(F)cc4C3O2)CC1 (stereo not shown)
< 10 nM

###

- ASSAY TARGET: human cloned 5-HT2A receptor, expressed in L929 cells (Homo sapiens)
- Construct: expressed in transfected cells; host or cells: L929 cells
- TEST: In vitro binding affinity for 5-HT2A receptor ([125I]R91150 radioligand binding)
- EXPERIMENTAL CONDITIONS: human cloned 5-HT2A receptor in L929 cells, [125I]R91150; read-out: 5-HT2A pIC50 (converted)
READOUT NAME: IC50 (nM)
Give a bare numeral; the unit nM is implied.

Solved entries:
COMPOUND: Fc1ccc2c(c1)C1OC(CN3CCC(Oc4cccc(C(F)(F)F)c4)C3)CC1c1ccccc1C2 (mixture of isomers)
IC50 / nM: 22.4
//
COMPOUND: N#CCCNC(=O)C1CCN(CC2CC3c4ccccc4Cc4ccc(F)cc4C3O2)CC1 (stereo not shown)
IC50 / nM: 1.62
//
COMPOUND: O=C(CCN1CCN(CC2CC3c4ccccc4Cc4ccc(F)cc4C3O2)CC1)c1ccc(F)cc1 (stereo not shown)
IC50 / nM: 3.39
//
COMPOUND: O=C(C1CCCO1)N1CCN(CC2CC3c4ccccc4Cc4ccc(F)cc4C3O2)CC1 (mixture of isomers)
IC50 / nM: 1.07

Data request, read-out IC50, for OC1(c2ccc(F)cc2)CCN(CC2CC3c4ccccc4Cc4ccc(F)cc4C3O2)C1 (mixture of isomers)
1.82

How about CCN(CC)CCN(C)C(=O)C1CCN(CC2CC3c4ccccc4Cc4ccc(F)cc4C3O2)CC1 (stereo not shown) ?
6.46

How about Fc1ccc2c(c1)C1OC(CN3CCN(Cc4cccc5ccccc45)CC3)CC1c1ccccc1C2 (stereo not shown) ?
17.4

###

- ASSAY TARGET: human cloned 5-HT2A receptor, expressed in L929 cells (Homo sapiens, UniProt P28223)
- Construct: expressed in transfected cells; host or cells: L929 cells
- TEST: In vitro binding affinity for 5-HT2A receptor ([125I]R91150 radioligand binding)
- EXPERIMENTAL CONDITIONS: human cloned 5-HT2A receptor in L929 cells, [125I]R91150; read-out: 5-HT2A pIC50 (converted)
# y = IC50 below 2 nM (exclusive); n = IC50 at/above 2 nM

Worked set:
COMPOUND: O=C(OCc1ccccc1)N1CCN(CC2CC3c4ccccc4Cc4ccc(F)cc4C3O2)CC1 (centres unmarked) [Compound 85]
LABEL: n

COMPOUND: O=C(NC1CCCCC1)OCC1CCN(CC2CC3c4ccccc4Cc4ccc(F)cc4C3O2)C1 (mixture of isomers) [Compound 21]
LABEL: y

COMPOUND: Fc1ccc2c(c1)C1OC(CN3CCCC(C4=NCCN4)C3)CC1c1ccccc1C2 (centres unmarked) [Compound 171]
LABEL: n

COMPOUND: CSCCNC(=O)N1CCN(CC2CC3c4ccccc4Cc4ccc(F)cc4C3O2)CC1 (centres unmarked) [Compound 87]
LABEL: y

COMPOUND: O=C(NCCCn1ccnc1)C1CCN(CC2CC3c4ccccc4Cc4ccc(F)cc4C3O2)CC1 (centres unmarked) [Compound 180]
LABEL: n

is_below(IC50, 2 nM) for O=S(=O)(c1ccccc1)N1CCN(CC2CC3c4ccccc4Cc4ccc(F)cc4C3O2)CC1 (centres unmarked) [Compound 106] ?
n

How about O=C(OC1CCN(CC2CC3c4ccccc4Cc4ccc(F)cc4C3O2)C1)c1ccc(F)cc1 (mixture of isomers) [Compound 16] ?
n
